The measurements presented in this section are drawn from the Human Domainome abundance scans (Beltran et al. 2025).

B1: Mineralocorticoid receptor, residues 600 to 675; numbered along this chain, P08235 (parent)
chain: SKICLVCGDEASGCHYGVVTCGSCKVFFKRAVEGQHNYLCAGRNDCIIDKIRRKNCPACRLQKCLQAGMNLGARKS

- Variants of: B1
- PROCEDURE_DETAILS: abundance fitness (aPCA) (normalised: wild type 0, dead -1); higher = more abundant; growth selection in yeast, the domain comes from the species named
- CONDITION_CONTEXT: Homo sapiens
QUANTITY_NAME: abundance fitness

D45S | -0.092
A11N | 0.031
K2S | -0.161
G17K | -0.054
D49L | -0.221
V32I | 0.019
H15L | -0.096
K75W | -0.007
S12I | 0.043
N70M | -0.044
N44H | -0.045
D9Q | -0.092
L61K | 0.021
L5P | -0.075
K2N | 0.002
K29N | -0.109
G8I | -0.605
D9V | -0.001
A11C | -0.123
C59S | -0.762
F28E | -0.749
V32M | 0.114
S1K | -0.123
L39M | 0.016
L61N | -0.338
P57L | -0.142
C4N | -1.04
L5S | -0.075
V19S | 0.038
H36P | -0.021
Q35A | -0.058
C59Y | -0.995
V19Q | -0.02
C59T | -0.654
I51Q | 0.095
C40K | -0.73
